System: HepG2
procedure_details: GSK_TCMDC: Percent inhibition of human HepG2 cell line. Test compounds present at 10uM.
Format: functional

compound | Inhibition
Cc1[nH]c(C)c(-c2ccc(Oc3cccc(Cl)c3)cc2)c(=O)c1Cl | 40%
CCc1c[nH]c2c(N3CCCS3(=O)=O)cc(C(=O)N[C@@H](Cc3ccccc3)[C@H](O)CNC3CCCCC3)cc12.O=CO | 6%
CC(C)CCN(Cc1cncn1Cc1cccc(C(F)(F)F)c1)C(=O)c1ccccc1C#N | 0%
COc1ccc2nc3cc(Cl)ccc3c(NCCNCC(O)CO)c2n1.Cl (centres undefined) | 12%
Cc1cc(Nc2ccc(OCc3ccccc3Cl)cc2)c2cc(Cl)ccc2n1.Cl | 33%
CCCCCCNC(=O)c1nn(CCN2CCC(N3CCCC3)CC2)cc1-c1ccc(Cl)c(Cl)c1 | 31%
COc1cc(Nc2nccc(N3CCC(NC(=O)c4cc5ccccc5s4)C3)n2)cc(OC)c1OC (centres undefined) | 2%
N#Cc1c(N2CCCCCC2)nc(N)c2c(N)nc3c(c12)CC(=O)N3c1ccc(F)cc1 | 0%
CN1CCN(Cc2ccc(OCc3cccc(COc4ccc(CN5CCN(C)CC5)cc4I)c3)c(I)c2)CC1.Cl | 93%

====

Test system: Plasmodium falciparum
procedure_details: GSK_TCMDC: Inhibition of Plasmodium falciparum 3D7 in whole red blood cells, using parasite LDH activity as an index of growth. Test compounds present at 2uM
Format: functional
Listing: Inhibition of selected molecules

molecule | Inhibition
COc1ccc2nccc([C@H](O)CN3CCC(NCc4ccc5c(c4C)OCCO5)CC3)c2n1.Cl | 94%
OCc1ccc(-c2cncc(Nc3cccc(Cl)c3)c2)cc1 | 95%
CC(C)c1ccc(OCC(O)CN(CCN2CCOCC2)C(=O)Nc2ccc(Br)cc2)cc1.O=C(O)C(F)(F)F (stereo not drawn) | 98%
CN(C)CC1c2[nH]c3ccccc3c2CCN1C(=O)Nc1ccc(Cl)c(Cl)c1.Cl (stereo not drawn) | 90%
CN(C(=O)Cc1ccc(Cl)c(Cl)c1)C1CCN(CCCCCNC(=O)/C=C/c2ccc(Cl)c(Cl)c2)CC1 | 84%
N=C(N)c1ccc(NC(=O)c2cc(Sc3ccc(O)c(C(=O)Nc4ccc(C(=N)N)cc4)c3)ccc2O)cc1 | 93%
C[C@H](Cc1ccc(OCCCCCCCOc2ccc(C[C@@H](C)NC[C@H](O)c3cccc(Cl)c3)cc2)cc1)NC[C@H](O)c1cccc(Cl)c1.Cl | 99%
O=C(Nc1ccccc1Cl)N(Cc1cc(Cl)cc(Cl)c1)CC(O)COc1ccc(Cl)c(F)c1 (stereo not drawn) | 93%

====

Listing: Inhibition of selected molecules
Test system: Plasmodium falciparum
procedure_details: GSK_TCMDC: Inhibition of Plasmodium falciparum 3D7 in whole red blood cells, using parasite LDH activity as an index of growth. Test compounds present at 2uM
Assay type: functional

molecule | Inhibition [%]
Cl.Nc1nc(N)c2c(Cl)c(N(Cc3ccccc3)Cc3ccccc3)ccc2n1 | 96
Cc1nc(N)nc(N)c1-c1ccc2ccccc2c1 | 97
COc1ccc(N2CCN(CCCCNC(=O)c3ccc(NC(=O)c4cccc(Cl)c4)cc3)CC2)c(OC)c1 | 100
COc1ccc2nccc(NC(=O)C3CCC(NCc4cnc(SC)c([N+](=O)[O-])c4)CC3)c2n1.Cl (stereo not drawn) | 89
COc1cc(O)c2c(=O)c(OC)c(-c3cccc(Cl)c3OCC(=O)O)oc2c1OC | 100
CN(C)C(=O)c1ccc(CN(Cc2ccc3c(c2)OCCO3)Cc2ccc3c(c2)OCO3)cc1 | 89
CCOc1c(Br)cc(Cl)cc1CNCCCNc1nc2ccccc2[nH]1.Cl | 98
CN1CCCC(CN2CCN(Cc3cccc(-c4ccc(-c5nc6cc(C(F)(F)F)ccc6[nH]5)cc4)c3)CC2)C1.O=C(O)C(F)(F)F (stereo not drawn) | 99
CC(=O)Nc1ccc(S(=O)(=O)N(Cc2cccc(Oc3ccccc3)c2)C2CCN(C/C=C(\C)CCC=C(C)C)CC2)cc1 | 100
CN(C)C(CNC(=O)c1cc(-c2ccncc2)c(-c2ccc(Cl)c(O)c2)o1)c1ccccc1.O=C(O)C(F)(F)F (stereo not drawn) | 91
CC(=O)Nc1ccc(CNCCc2ccc(NC(=O)c3cc(Cl)cc(Cl)c3)cc2)cc1 | 100
O=C(Nc1cccc(CN2CCCN(Cc3ccccc3)CC2)c1)c1cc2ccccc2s1.O=C(O)C(F)(F)F | 87
CCNc1cc(C(=O)N[C@@H](Cc2ccccc2)[C@H](O)CNC(C)(C)CC(C)(C)C)c(F)c(N2CCCCS2(=O)=O)c1 | 94
CCc1cc(CNC2CCN(CCc3c(F)cnc4ccc(OC)nc34)CC2)cc2c1OCCO2.Cl | 100
CC(C)(CN)c1cc(-c2ccc(Cl)c(O)c2)c(-c2ccncc2)o1.Cl | 92
CCCNCc1ccc(-c2ccc(CN(CCOC)C(=O)c3cnc(C)cn3)cc2)nc1.O=C(O)C(F)(F)F | 81
COc1ccc(Cn2c(SCc3ccc(C)cc3)nc3cc(OC)c(OC)cc3c2=N)cc1Cl | 92
Cc1cc(C2CCN(CCCCNC(=O)c3ccc(NC(=O)c4ccc(Cl)cc4)cc3)CC2)c(C)cc1OC(C)C.Cl | 100
